method_description: Pharmacokinetic study after intravenous bolus administration of LPV in rats
Format: in vivo
protocol_conditions: rat, male Wistar rats, 5 mg kg^−1, n = 6, plasma, read-out: volume of distribution (Vss)
readout_type: Vd (L/kg)
Value expressed in L/kg; do not type the unit.

Determine from records and report Vd for Cc1cccc(C)c1OCC(=O)N[C@@H](Cc1ccccc1)[C@@H](O)C[C@H](Cc1ccccc1)NC(=O)[C@H](C(C)C)N1CCCNC1=O
1.59

====

method_description: Pharmacokinetic study after intravenous bolus administration of LPV in rats
Format: in vivo
protocol_conditions: rat, male Wistar rats, 5 mg kg^−1, n = 6, plasma, read-out: area under the curve (AUC)
readout_type: AUC
Please state the number and follow it with the unit.

Determine from records and report AUC for Cc1cccc(C)c1OCC(=O)N[C@@H](Cc1ccccc1)[C@@H](O)C[C@H](Cc1ccccc1)NC(=O)[C@H](C(C)C)N1CCCNC1=O
3850 ng·h/mL

====

method_description: Pharmacokinetic study after intravenous bolus administration of LPV in rats
Format: in vivo
protocol_conditions: rat, male Wistar rats, 5 mg kg^−1, n = 6, plasma, read-out: elimination half-life (t½) (converted)
readout_type: half-life (min)
Value expressed in min; do not type the unit.

Determine from records and report half-life for Cc1cccc(C)c1OCC(=O)N[C@@H](Cc1ccccc1)[C@@H](O)C[C@H](Cc1ccccc1)NC(=O)[C@H](C(C)C)N1CCCNC1=O [LPV]
49.2
